Biological target: Polyunsaturated fatty acid 5-lipoxygenase (Rattus norvegicus)
Sequence (P12527 whole entry): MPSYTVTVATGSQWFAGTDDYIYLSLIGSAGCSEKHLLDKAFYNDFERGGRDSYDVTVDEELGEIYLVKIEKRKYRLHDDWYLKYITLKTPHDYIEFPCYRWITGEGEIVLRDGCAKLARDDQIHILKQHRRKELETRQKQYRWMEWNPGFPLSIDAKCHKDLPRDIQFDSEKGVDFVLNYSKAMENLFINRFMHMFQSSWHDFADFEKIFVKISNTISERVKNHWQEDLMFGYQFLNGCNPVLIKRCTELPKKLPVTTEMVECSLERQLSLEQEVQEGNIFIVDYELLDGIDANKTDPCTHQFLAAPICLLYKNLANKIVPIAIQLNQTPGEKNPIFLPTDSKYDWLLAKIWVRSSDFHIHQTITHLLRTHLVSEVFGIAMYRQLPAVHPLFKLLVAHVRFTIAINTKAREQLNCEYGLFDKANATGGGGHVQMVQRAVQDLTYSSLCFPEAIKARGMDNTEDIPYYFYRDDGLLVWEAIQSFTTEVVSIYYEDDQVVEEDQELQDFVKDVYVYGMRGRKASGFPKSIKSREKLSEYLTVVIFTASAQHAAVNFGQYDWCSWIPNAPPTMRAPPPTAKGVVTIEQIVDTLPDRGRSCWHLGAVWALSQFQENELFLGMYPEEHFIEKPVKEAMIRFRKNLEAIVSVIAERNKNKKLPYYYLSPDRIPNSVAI
pIC50: −log10 of the molar value.
Consider the following pIC50 data for Polyunsaturated fatty acid 5-lipoxygenase (Rattus norvegicus), collected from several reports.
readout label: pIC50

> print(dat)
                                   molecule  censoring.qualifier  test.result
1  CCCCC/C=C\C/C=C\C/C=C\C=C\C(CCCC(=O)O)NO (stereo unspecified)                    =         4.68
2  CCCCC/C=C\C/C=C\C/C=C\C=C\C(CCCC(=O)O)CC(=O)O (stereo unspecified)                    =         4.02
3  COCCC1C(=O)NN(c2ccccc2)C1(C)C (stereo unspecified)                    <         6.00
4  Cc1c(CC(C)(C)C(=O)O)n(Cc2ccc(Cl)cc2)c2ccc(OCc3ccc4ccccc4n3)cc12                    <         5.30
5   COC(=O)C(=O)Nc1cccc(OCc2ccc3ccccc3n2)c1                    =         5.28
6                    CN(O)C(=O)CCCCc1ccccc1                    =         6.96
